- TARGET OR TEST SYSTEM: TG2 (Homo sapiens (Human))
- Sequence (P21980 whole entry): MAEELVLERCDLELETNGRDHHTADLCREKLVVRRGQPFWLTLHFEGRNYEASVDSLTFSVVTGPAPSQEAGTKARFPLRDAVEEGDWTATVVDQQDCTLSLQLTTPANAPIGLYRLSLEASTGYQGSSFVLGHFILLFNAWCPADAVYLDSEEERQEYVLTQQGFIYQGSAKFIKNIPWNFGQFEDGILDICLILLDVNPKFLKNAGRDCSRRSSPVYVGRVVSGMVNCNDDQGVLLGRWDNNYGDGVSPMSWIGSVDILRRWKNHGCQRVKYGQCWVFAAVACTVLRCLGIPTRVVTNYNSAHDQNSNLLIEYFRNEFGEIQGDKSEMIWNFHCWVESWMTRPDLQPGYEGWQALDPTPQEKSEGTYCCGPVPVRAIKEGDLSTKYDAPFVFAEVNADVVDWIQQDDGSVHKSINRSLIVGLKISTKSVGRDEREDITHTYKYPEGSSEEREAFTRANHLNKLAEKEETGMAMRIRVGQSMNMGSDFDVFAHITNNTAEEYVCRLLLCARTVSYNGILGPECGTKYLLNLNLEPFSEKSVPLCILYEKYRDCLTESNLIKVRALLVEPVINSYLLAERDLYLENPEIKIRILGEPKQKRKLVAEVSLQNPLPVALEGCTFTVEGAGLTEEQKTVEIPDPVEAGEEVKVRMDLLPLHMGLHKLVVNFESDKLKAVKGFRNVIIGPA
- ASSAY: Inhibitory activity against TG2 (isopeptidase assay), Tables 3 and 4
- Format: biochemical
- CONDITIONS USED: TG2 versus FXIII, isopeptidase assay, Table 3
*1 amine or outer side, *2 acyl side, *3 side chain or, on linkers, in order; H or OH if unused. Where a SMILES comes first, the peptide text is derived from it. [ ]: non-standard residue; d: D form. The star is where a group is joined. Benzoyl(3-COOH,5-NO2) = O=C(O)c1cc(C(=O)*)cc([N+](=O)[O-])c1; Nle(5E-ene,6-CO2Et) = CCOC(=O)/C=C/CC[C@H](N)C(=O)O; Isonicotinoyl(3-COOH) = O=C(O)c1cnccc1C(=O)*; X1 = COC(=O)/C=C/CC[C@H](N[*:1])C(=O)[*:2]; Pro(4-oxo) = O=C1CN[C@H](C(=O)O)C1; Chg = N[C@H](C(=O)O)C1CCCCC1; Tle = CC(C)(C)[C@H](N)C(=O)O
# reported Selectivity; entries follow
// response body must contain only the number

COC(=O)/C=C/CC[C@H](NC(=O)c1cc(C(=O)O)cc([N+](=O)[O-])c1)C(=O)N[C@H](C(=O)N1CC(=O)C[C@H]1C(=O)N[C@H](C(=O)N[C@H](C(N)=O)C1CCCCC1)C1CCCCC1)C(C)(C)C [Compound 4] ({Benzoyl(3-COOH,5-NO2)}-[X1][Tle][Pro(4-oxo)][Chg][Chg]-NH2)    1.1
COC(=O)/C=C/CC[C@H](NC(=O)c1ccncc1C(=O)O)C(=O)N[C@H](C(=O)N1CC(=O)C[C@H]1C(=O)N[C@H](C(=O)N[C@H](C(=O)O)C1CCCCC1)C1CCCCC1)C(C)(C)C [34a/b] ({Isonicotinoyl(3-COOH)}-[X1][Tle][Pro(4-oxo)][Chg][Chg]-OH)    2.7

Now let's try a different one.
Inquiry: Assign Selectivity to the following record: CCOC(=O)/C=C/CC[C@H](NC(=O)c1ccncc1C(=O)O)C(=O)N[C@H](C(=O)N1CC(=O)C[C@H]1C(=O)N[C@H](C(=O)N[C@H](C(N)=O)C1CCCCC1)C1CCCCC1)C(C)(C)C [8a/b] ({Isonicotinoyl(3-COOH)}-[Nle(5E-ene,6-CO2Et)][Tle][Pro(4-oxo)][Chg][Chg]-NH2)
Reply text: 19.9
